Study system: T1, TNFR1 (Homo sapiens, UniProt P19438)
T1 chain: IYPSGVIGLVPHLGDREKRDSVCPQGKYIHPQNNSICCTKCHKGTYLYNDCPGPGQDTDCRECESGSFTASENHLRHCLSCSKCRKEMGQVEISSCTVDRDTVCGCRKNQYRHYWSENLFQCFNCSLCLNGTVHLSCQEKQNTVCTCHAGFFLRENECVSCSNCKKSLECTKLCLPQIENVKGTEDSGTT
Test details: yeast display SC50
Property: apparent Kd (screen); scope: individual binders
Please state the figure in nM; there is no need to write the unit.

Some solved entries appear below for comparison.
| Binder | apparent Kd (screen) (nM) |
| --- | --- |
| S53H (designed binder) MTLQELLREEALRRAEAEAFRYALELLAEKFPEQKEYLLDLAEEIESQIRSLHGVDVEDVRKFLDKEWAWVKELLAEHPAELAEVEAARAARLAELRAEVEAKVAA | 0.653 |
| S51D (designed binder) MTLQELLREEALRRAEAEAFRYALELLAEKFPEQKEYLLDLAEEIESQIRDLSGVDVEDVRKFLDKEWAWVKELLAEHPAELAEVEAARAARLAELRAEVEAKVAA | 2.05 |
| E25G (designed binder) MTLQELLREEALRRAEAEAFRYALGLLAEKFPEQKEYLLDLAEEIESQIRSLSGVDVEDVRKFLDKEWAWVKELLAEHPAELAEVEAARAARLAELRAEVEAKVAA | 0.49 |
| E44M (designed binder) MTLQELLREEALRRAEAEAFRYALELLAEKFPEQKEYLLDLAEMIESQIRSLSGVDVEDVRKFLDKEWAWVKELLAEHPAELAEVEAARAARLAELRAEVEAKVAA | 1.69 |
| R61G (designed binder) MTLQELLREEALRRAEAEAFRYALELLAEKFPEQKEYLLDLAEEIESQIRSLSGVDVEDVGKFLDKEWAWVKELLAEHPAELAEVEAARAARLAELRAEVEAKVAA | 2.25 |

Q: # input binder: A90I (designed binder) MTLQELLREEALRRAEAEAFRYALELLAEKFPEQKEYLLDLAEEIESQIRSLSGVDVEDVRKFLDKEWAWVKELLAEHPAELAEVEAARIARLAELRAEVEAKVAA ; wanted: its apparent Kd (screen)
Result: 0.49

Q: # input binder: E67A (designed binder) MTLQELLREEALRRAEAEAFRYALELLAEKFPEQKEYLLDLAEEIESQIRSLSGVDVEDVRKFLDKAWAWVKELLAEHPAELAEVEAARAARLAELRAEVEAKVAA ; wanted: its apparent Kd (screen)
Result: 12.5

Q: # input binder: K35W (designed binder) MTLQELLREEALRRAEAEAFRYALELLAEKFPEQWEYLLDLAEEIESQIRSLSGVDVEDVRKFLDKEWAWVKELLAEHPAELAEVEAARAARLAELRAEVEAKVAA ; wanted: its apparent Kd (screen)
Result: 0.593
